This listing pairs variants with measured polymerase ribozyme fitness (log ratio).
B1: TPR 5TU (parent)
chain: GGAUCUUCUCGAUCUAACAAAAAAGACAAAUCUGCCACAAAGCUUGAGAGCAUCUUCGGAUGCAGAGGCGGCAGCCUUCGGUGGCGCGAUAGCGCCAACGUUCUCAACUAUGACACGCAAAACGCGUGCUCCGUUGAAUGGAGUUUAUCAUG

Variants of: B1
assay details: polymerase ribozyme fitness, log enrichment relative to wild type (log ratio); higher = more active; in vitro selection for triplet polymerase activity
This sample holds only a part of the variants without activity.
metric name: polymerase ribozyme fitness (log ratio)

mut | metric name | reported
A60U G84U U102G | polymerase ribozyme fitness (log ratio) | -4.18
A12G A37G C87U U109G U144C U145C C149G | polymerase ribozyme fitness (log ratio) | ≤ -4.2
G25U G46A C57U C69A G128U A138U | polymerase ribozyme fitness (log ratio) | ≤ -4.2
A29U A41C A52C C87U U102C G136A G143C U146A | polymerase ribozyme fitness (log ratio) | ≤ -4.2
U4C C5G C32A A40C U82C A98G C103U A113C A150C | polymerase ribozyme fitness (log ratio) | ≤ -4.2
C27U G50C C114G | polymerase ribozyme fitness (log ratio) | ≤ -4.2
U44C C85A A91U U127G | polymerase ribozyme fitness (log ratio) | ≤ -4.2
C35A U44A C63U G70A G80C C87G | polymerase ribozyme fitness (log ratio) | ≤ -4.2
A28U C99A | polymerase ribozyme fitness (log ratio) | -4.15
A30G C54U C76G A91C | polymerase ribozyme fitness (log ratio) | ≤ -4.2
C10G A22G A39U U109C | polymerase ribozyme fitness (log ratio) | ≤ -4.2
A19U A73G G86U | polymerase ribozyme fitness (log ratio) | -1.03
A89G G92U | polymerase ribozyme fitness (log ratio) | -2.48
U31G C116G U144C | polymerase ribozyme fitness (log ratio) | -4.03
U61G A89U C95A C99A U109C G136A U148G C149A | polymerase ribozyme fitness (log ratio) | ≤ -4.2
A21U A22U U53G | polymerase ribozyme fitness (log ratio) | -0.816
C27A U55G A66U C72U U78G C79U A91C C105U | polymerase ribozyme fitness (log ratio) | ≤ -4.2
C32A U61G U82A G92U C99G | polymerase ribozyme fitness (log ratio) | ≤ -4.2
G50U C63U C79G C131G A137C | polymerase ribozyme fitness (log ratio) | ≤ -4.2
C5A A110C | polymerase ribozyme fitness (log ratio) | ≤ -4.2
U6A A16C U56A U61A C95U C114U | polymerase ribozyme fitness (log ratio) | -3.64
G50C A52C G86U C87A | polymerase ribozyme fitness (log ratio) | ≤ -4.2
